- method_description: Clearance in Sprague-Dawley rat plasma at 1 mg/kg, iv
- Format: ADME, organism-based
readout: clearance

[[record]]
compound_string = "C[C@]12CC[C@@H]3c4ccc(O)cc4CC[C@H]3[C@@H]1CC[C@@H]2OC(=O)[C@@H]1CCCN1C(=O)c1ccc(S(N)(=O)=O)cc1"
value_observed = "62.8 mL/min/kg"


---

- method_description: Oral bioavailability life in Sprague-Dawley rat blood at 5 mg/kg
- Format: ADME, organism-based
readout: bioavailability (%)

[[record]]
compound_string = "C[C@]12CC[C@@H]3c4ccc(O)cc4CC[C@H]3[C@@H]1CC[C@@H]2OC(=O)[C@@H]1CCCN1C(=O)c1ccc(S(N)(=O)=O)cc1"
readout = "bioavailability"
quantity_unit = "%"
value_observed = 122

